These measurements were taken from PubChem BioAssay.

PROTOCOL: Nile Red efflux blockade in pump-expressing yeast – validation compound set, multiplex, phenotypic, pilot screen (AID 588506);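 also: Nile Red retained in cells so higher fluorescence means more efflux inhibition; 0 = negative control wells and 1 = enniatin B 25 µM full block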
TEST_CONTEXT: S. cerevisiae pump-expressing triplex, Nile Red efflux flow cytometry; at 10 µM; hits give high values; the pumps come from Candida albicans
PROPERTY_NAME: efflux inhibition (fraction of control)
// return a plain number; no unit text

>  <COMPOUND>
Cc1cn([C@H]2C=C[C@@H](CO)O2)c(=O)[nH]c1=O

>  <PROPERTY_NAME>
efflux inhibition (fraction of control)

>  <RECORDED_MEASUREMENT>
0.02

$$$$
>  <COMPOUND>
CC(=O)OC[C@H]1O[C@@H](Sc2cccc3cccnc23)[C@H](OC(C)=O)[C@@H](OC(C)=O)[C@H]1OC(C)=O

>  <PROPERTY_NAME>
efflux inhibition (fraction of control)

>  <RECORDED_MEASUREMENT>
0.04

$$$$
>  <COMPOUND>
COc1cc2c(cc1OC)-c1cc(NC3CCCCCC3)nc(=O)n1CC2

>  <PROPERTY_NAME>
efflux inhibition (fraction of control)

>  <RECORDED_MEASUREMENT>
0.21

$$$$
>  <COMPOUND>
O=C(O)[C@@H](O)c1ccccc1

>  <PROPERTY_NAME>
efflux inhibition (fraction of control)

>  <RECORDED_MEASUREMENT>
-0.04

$$$$

Requested read-out: efflux inhibition (fraction of control). Entry: c1ccc(SSc2ccccc2)cc1
-0.04

Requested read-out: efflux inhibition (fraction of control). Entry: CC(=O)C1=C(O)C(=O)N(Cc2cccnc2)C1c1ccc(C(C)C)cc1 (configuration not stated)
0.08

Requested read-out: efflux inhibition (fraction of control). Entry: CN(C)[C@@H]1C(=O)C(C(N)=O)=C(O)[C@@]2(O)C(=O)C3=C(O)c4c(O)ccc(Cl)c4[C@@H](O)[C@H]3C[C@@H]12
-0.17

Requested read-out: efflux inhibition (fraction of control). Entry: CCOC(=O)C1=C(C)N[C@@]2(O)c3ccccc3C(=O)[C@@]12O
-0.21

Requested read-out: efflux inhibition (fraction of control). Entry: O=C(O)c1ccc(N2C(=O)/C(=C\c3ccccc3)N=C2c2ccccc2)cc1
-0.2

Requested read-out: efflux inhibition (fraction of control). Entry: COc1ccc(-c2coc3c(CN4CCOCC4)c(O)ccc3c2=O)cc1
0.31

Requested read-out: efflux inhibition (fraction of control). Entry: COc1ccc2oc(=O)c(C(=O)Nc3ccccc3-c3ccccc3)cc2c1
0

Requested read-out: efflux inhibition (fraction of control). Entry: COc1ccccc1/C=C/C(=O)OCCN1CCOCC1
0.27

Requested read-out: efflux inhibition (fraction of control). Entry: Cc1cc(C(=O)Nc2ccccc2C(=O)N2CCCCC2)ccc1[N+](=O)[O-]
-0.04

Requested read-out: efflux inhibition (fraction of control). Entry: O=c1oc2c(CN3CCCCC3)c(O)ccc2c2c1CCCCC2
-0.16

Requested read-out: efflux inhibition (fraction of control). Entry: C[C@]12CC[C@@H]3c4ccc(O)cc4CC[C@H]3[C@@H]1CCC2=O
-0.32

Requested read-out: efflux inhibition (fraction of control). Entry: CC(C)Oc1ccc2c(=O)c(-c3ccccc3)coc2c1
-0.53

* * *

TESTED_TARGET: Beta-2 adrenergic receptor (Homo sapiens)
PROTOCOL: agonist-induced loss of surface beta2AR – cell-based, FAP fluorogen, flow cytometry, validation set, pilot screen (AID 504459);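 also: agonist-driven loss of surface beta2AR via internalization measured by FAP dye flow cytometry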
TEST_CONTEXT: Am2.2-beta2AR cells, at 10 µM, hits give high values
PROPERTY_NAME: response (%)
The response must be a number in % with no trailing unit.

>  <COMPOUND>
NCc1ccccc1COc1ccccc1

>  <PROPERTY_NAME>
response

>  <RECORDED_MEASUREMENT>
4.62

$$$$

Requested read-out: response. Entry: COc1ccc(-c2cc(C(=O)N3CCOCC3)c3cc(C)ccc3n2)cc1
-16.3

Requested read-out: response. Entry: CSCC[C@H](NC(=O)Nc1ccc(C)cc1C)C(=O)O
3.91

Requested read-out: response. Entry: CC(=O)c1ccc(CCCCCCCCCC(=O)O)s1
23.9

* * *

PROTOCOL: TOR pathway GLN3 branch reporter MEP2-GFP changes – S. cerevisiae, multiplex flow cytometry, primary screen (AID 1867);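 also: median GFP channel fluorescence of barcode-gated MEP2-GFP cells measured by flow cytometry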
TEST_CONTEXT: S. cerevisiae MEP2-GFP strain, 3 h, at 10 µM, hits give high values, 100% means same as DMSO wells
Results filed as inconclusive are left out.
PROPERTY_NAME: GFP response vs DMSO (%)
The response must be a number in % with no trailing unit.

>  <COMPOUND>
CCN(CC)C(=O)N1CCN(C)CC1

>  <GFP response vs DMSO, %>
106

$$$$
>  <COMPOUND>
O=C(OCC1CCCN2CCCCC12)c1ccc2c(c1)OCO2 (stereo not drawn)

>  <GFP response vs DMSO, %>
112

$$$$
>  <COMPOUND>
CC(=O)N(CCC(Cc1ccccc1)c1ccco1)Cc1ccco1 (stereo not drawn)

>  <GFP response vs DMSO, %>
145

$$$$

Requested read-out: GFP response vs DMSO. Entry: CCOc1ccc2[nH]c3c(=O)n(CCc4ccc(OC)cc4)cnc3c2c1
112

* * *

GFP response vs DMSO values by entry
PROTOCOL: TOR pathway GLN3 branch reporter MEP2-GFP changes – S. cerevisiae, multiplex flow cytometry, primary screen (AID 1867);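 also: median GFP channel fluorescence of barcode-gated MEP2-GFP cells measured by flow cytometry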
TEST_CONTEXT: S. cerevisiae MEP2-GFP strain, 3 h, at 10 µM, hits give high values, 100% means same as DMSO wells
Results filed as inconclusive are left out.
The response must be a number in % with no trailing unit.

Solved cases below.
>  <MOLECULE>
CC1(C)CC(NCc2ccccc2)CCO1 (configuration not stated)

>  <RECORDED_MEASUREMENT>
97.6

$$$$
>  <MOLECULE>
Cc1ccccc1C(=O)NCC(=O)O

>  <RECORDED_MEASUREMENT>
107

$$$$
>  <MOLECULE>
O=C(/C=C/c1ccc(F)cc1)NC(=S)N1CCCCC1c1cccnc1 (configuration not stated)

>  <RECORDED_MEASUREMENT>
106

$$$$

Requested read-out: GFP response vs DMSO. Entry: CCOC(=O)C(=O)N1CCN(c2ccccc2OC)CC1
112

* * *

PROTOCOL: TOR pathway RTG branch CIT2 reporter changes – S. cerevisiae, GFP fusion, multiplex flow cytometry, primary screen (AID 1870);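 also: barcoded CIT2-GFP strain pooled with four other GFP strains with rapamycin as positive control; median GFP fluorescence per well over plate mean of DMSO wells so 100% = DMSO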
TEST_CONTEXT: S. cerevisiae CIT2-GFP expression, 3 h, at 10 µM, hits give high values
Calls of active or inactive are those of the source.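 Rule for the calls: active = percent response above a set limit, the screen-wide mean plus 3 SD (cut at about 130% in these data); inactive = the rest.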
percent response of DMSO control values by entry

Requested read-out: percent response of DMSO control. Entry: CC[C@H]1CN2CCc3cc(OC)c(OC)cc3[C@@H]2C[C@@H]1C[C@H]1NCCc2cc(OC)c(OC)cc21
94.5% (inactive)

* * *

TESTED_TARGET: Beta-2 adrenergic receptor (Homo sapiens) (UniProt P07550)
Sequence (P07550 whole entry, looked up): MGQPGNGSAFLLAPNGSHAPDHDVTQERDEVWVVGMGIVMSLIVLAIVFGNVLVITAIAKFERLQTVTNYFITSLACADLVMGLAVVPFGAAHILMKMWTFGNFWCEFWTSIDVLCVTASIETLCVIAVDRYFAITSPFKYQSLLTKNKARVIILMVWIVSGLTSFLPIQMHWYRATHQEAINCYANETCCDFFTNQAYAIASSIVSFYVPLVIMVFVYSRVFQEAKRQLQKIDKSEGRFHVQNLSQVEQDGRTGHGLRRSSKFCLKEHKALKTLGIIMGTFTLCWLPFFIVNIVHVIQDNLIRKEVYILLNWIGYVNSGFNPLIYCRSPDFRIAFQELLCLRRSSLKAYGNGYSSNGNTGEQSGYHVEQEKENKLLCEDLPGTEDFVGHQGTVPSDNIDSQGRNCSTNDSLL
PROTOCOL: agonist-induced loss of surface beta2AR – cell-based, FAP fluorogen, flow cytometry, validation set, pilot screen (AID 504459);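 also: agonist-driven loss of surface beta2AR via internalization measured by FAP dye flow cytometry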
TEST_CONTEXT: Am2.2-beta2AR cells, at 10 µM, hits give high values
PROPERTY_NAME: response (%)
The response must be a number in % with no trailing unit.

Solved cases below.
>  <MOLECULE>
CCNC(=O)C(Cc1ccccc1)NC(=O)OCc1ccccc1 (configuration not stated)

>  <RECORDED_MEASUREMENT>
-19.9

$$$$
>  <MOLECULE>
Cc1ccc(OCc2nc(-c3cccnc3)no2)cc1C

>  <RECORDED_MEASUREMENT>
-15.7

$$$$
>  <MOLECULE>
CC1=CC(=O)c2ccccc2C1=O

>  <RECORDED_MEASUREMENT>
22.2

$$$$
>  <MOLECULE>
COc1ccc(N2C(=O)[C@@H]3[C@H](C2=O)[C@H]2c4ccccc4C=CN2[C@@H]3C(C)=O)cc1

>  <RECORDED_MEASUREMENT>
-19.3

$$$$
>  <MOLECULE>
O=C(NCCc1c[nH]c2ccccc12)c1cccnc1

>  <RECORDED_MEASUREMENT>
-0.09

$$$$

Requested read-out: response. Entry: COc1ccc(C2C3CCCCC3(O)CCN2C(=O)c2cccs2)cc1 (configuration not stated)
-26.4

Requested read-out: response. Entry: C1CCC(C(CC2CCCCN2)C2CCCCC2)CC1 (configuration not stated)
26.4

Requested read-out: response. Entry: CC1(C)C(=O)OC(c2cccs2)C2(CCCCC2)C1=O (configuration not stated)
3.42

Requested read-out: response. Entry: COC(=O)c1cc(Br)c(=O)n(CCc2ccc(O)cc2)c1
-13.9

Requested read-out: response. Entry: Cc1cc(O)c(C(=O)Cc2csc(C)n2)c(O)c1
2.72
